# experiment.notes: LAP4-GFP expression modulators in yeast, confirmation, cell-based, cherry picks, flow cytometry, mother/daughter gates (AID 2271);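 note: ratio of sample to DMSO plate mean so 100% equals DMSO level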
# condition.label: S. cerevisiae LAP4-GFP strain, 3 h, at 10 µM, stronger effect = higher value, 100 means same as DMSO control
In this section, each of the compounds is paired with its reported GFP response relative to DMSO.
# value in %; strip the unit string

COc1cccc(-c2nnc(NC(=O)c3ccc(S(=O)(=O)N(CC(C)C)CC(C)C)cc3)o2)c1; 98.8
O=C1C(Cl)=C(Nc2ccccc2O)C(=O)N1c1ccccc1; 112
O=C(N/N=C\c1ccc(F)cc1)c1cc(OCC(F)(F)F)ccc1OCC(F)(F)F; 100

Looking up O=C(/C=C/c1ccccc1)C1=C(O)C(=O)N(CCO)C1c1cccc([N+](=O)[O-])c1 (stereo not given) , I see its GFP response relative to DMSO listed as 97.7

Looking up "COc1ccccc1C(=O)N1CCN(c2cccc(C(F)(F)F)c2)CC1" , I see its GFP response relative to DMSO listed as 95.3
